# method.summary: endothelial E-selectin expression blockers – imaging, HUVEC, immunofluorescence, MLSMR starter and 10KST1 sets, primary screen (AID 487);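 further: signal is fraction of cell area covered by stained E-selectin grains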
# condition.summary: HUVEC TNFalpha-induced E-selectin immunofluorescence imaging, at 2 µM
Calls of active or inactive are those of the source.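 How the source made its calls: active means visually confirmed hit in the image check and inhibition above 20%; inconclusive means visually confirmed hit but inhibition not above 20%; inactive means no visual hit in the image check.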
Outcome codes: active, inactive

COc1ccc(N2CCN(CCCNC(=O)CC3Oc4ccc(C)cc4NC3=O)CC2)cc1 (stereo not given) = inactive
COCCCNC(=O)CCn1c(=O)c2ccccc2n(CC(=O)Nc2ccc(C)cc2C)c1=O = inactive
Cc1c(NC(=O)c2ccc(CN3CCc4ccccc4C3)cc2)c(=O)n(-c2ccccc2)n1C = inactive
Cc1nc2ccc(CCO)cc2s1 = inactive
O=C(Cn1ncc2c1-c1ccccc1OC2)N1CCN(c2ccccn2)CC1 = inactive
CCOC(=O)CN1CC23C=CC(O2)C(C(=O)Nc2ccc(C(C)=O)cc2)C3C1=O (stereo not given) = inactive
CC1CN(C(=O)CSc2nnc(-c3ccncc3)n2-c2ccccc2)CC(C)O1 (stereo not given) = active
CCc1c(C)nc2ncnn2c1N1CCC(C(=O)NCc2cccc(OC)c2)CC1 = inactive
Cc1csc(NC(=O)C(Cc2ccccc2)n2cccc2)n1 (stereo not given) = inactive
O=S(=O)(NCC1CCCO1)c1cc(Cl)ccc1Br (stereo not given) = inactive
O=C(Oc1ccc2ccc(OC(=O)N3CCOCC3)cc2c1)N1CCOCC1 = inactive
O=C(NCC(c1cccnc1)N1CCOCC1)c1ccco1 (stereo not given) = inactive
COc1ccccc1N(CN1CCCC1=O)C(=O)c1c(F)cccc1Cl = inactive
Cc1csc(NC(=O)c2cccs2)n1 = inactive
O=C(NCc1ccc2c(c1)OCO2)C1CCC(CNS(=O)(=O)c2ccccc2)CC1 (stereo not given) = inactive
COc1ccc2[nH]c(=O)c(CN(C(=O)c3cccnc3)c3ccccc3OC)cc2c1 = inactive
Cc1ccc(C(C(=O)NC(C)(C)C)N(C(=O)c2csnn2)c2cccc(F)c2)o1 (stereo not given) = inactive
COc1ccc(C(C(=O)NC2CCCCC2)N2CCC3(CC2)OCCO3)cc1 (stereo not given) = inactive
CC(=O)NC(Cc1c[nH]c2ccccc12)C(=O)OCC(=O)Nc1cc(C)on1 (stereo not given) = inactive
CCOC(=O)c1cnn(-c2cc(C)nc3c(-c4ccccc4)c(C)nn23)c1N = inactive
C=CCn1c(SCC(=O)C(C)(C)C)nnc1-c1ccccn1 = inactive
CC(C)C1C2=C(CC(C)(C)CC2=O)ON1c1ccccc1 (stereo not given) = inactive
CC(C)(C)SCCNC(=O)CSc1ccccc1 = inactive
Cc1ccc(C2=Nc3ccccc3NC(C)(c3ccc(C)o3)C2)o1 (stereo not given) = inactive
CCc1nnc(NC(=O)c2ccc(COc3ccccc3)o2)s1 = inactive
COc1ccccc1N1C(=O)CC(Sc2nc(C)cc(C)n2)C1=O (stereo not given) = inactive
CC1(C)C(=O)Nc2ccccc2N1C(=O)COC(=O)Cn1cnc2ccccc2c1=O = inactive
Cn1c(=O)c2c(nc(-n3ccnc3)n2C)n(C)c1=O = inactive
CC(C)OC(=O)CN1C(=O)C(C)(C)Oc2ccc(C(=O)NC3CC3)cc21 = inactive
COc1ccc(C(=O)Nc2nc(C)c(C(=O)N(C)C)s2)cc1OC = inactive
Cc1ccc(C2Nc3ccccc3-c3nc4ccccc4n32)o1 (stereo not given) = inactive
CN(CCc1ccccn1)c1ncnc2[nH]ncc12 = active
CN(Cc1cccs1)C(=O)CCc1ccc(S(=O)(=O)N2CCOCC2)cc1 = inactive
COc1cccc(NC(=O)CSc2nnc(-c3cc(-c4ccccn4)nc4ccccc34)o2)c1 = inactive
COc1ccc(N2CCN(c3oc(COc4ccccc4Cl)nc3C#N)CC2)cc1 = inactive
CC(=O)c1cccc(NC(=O)N2CCCc3ccccc32)c1 = inactive
c1ccc(Cc2ccc(OCCn3cncn3)cc2)cc1 = inactive
CN(C)c1nc(SCCOC(=O)c2ccccc2)nc(N(C)C)n1 = inactive
CCOc1ccc(N(CC(=O)NCc2cccc(OC)c2)S(=O)(=O)c2c(C)noc2C)cc1 = inactive
Cc1ccc(N=Cc2ccc[nH]2)c(O)c1 = inactive
CSc1nc(C)cc(OCC(=O)N2CCOCC2)n1 = inactive
CC1(C)COCN1S(=O)(=O)c1ccc(C(=O)Nc2nnc(-c3ccc(Cl)s3)o2)cc1 = inactive
CCOC(=O)C(CC)Sc1nc2c(c(=O)[nH]c(=O)n2C)n1C/C=C(/C)Cl (stereo not given) = inactive
Cn1nnnc1SCC(=O)N1CCN(c2cccc(Cl)c2)CC1 = inactive
CCOC(=O)CC(=O)c1cc(OC)c(OC)c(OC)c1 = inactive
